B1: library; numbered along this chain (parent)
chain: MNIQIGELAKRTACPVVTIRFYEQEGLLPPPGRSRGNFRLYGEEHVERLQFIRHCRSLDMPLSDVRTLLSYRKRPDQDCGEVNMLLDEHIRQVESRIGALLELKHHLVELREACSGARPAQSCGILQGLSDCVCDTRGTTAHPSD

Variants of: B1
Assay: sfGFP reporter fluorescence (15 h) (µM FITC); higher = stronger transcriptional activation
Conditions: library round: Round 0; ligand: 1 µM Pb
Property: sfGFP reporter fluorescence
Reply: number alone, nothing else.

[Q] Please give the measured sfGFP reporter fluorescence for this variant: MNIQIGELAKRTACPVVTIRFYEQEGLLPPPGRSRGNFRLYGEEHVERLQFIRHCRSLDMPLSDVRTLLSYRKRPDQDCGEVNMLLDEHIRQVESRIGALLELKHHLCELREACSGARPAQSCGILQGLSDCVCDTRGTTAHPSD
[A] 0.0788

[Q] Please report the recorded sfGFP reporter fluorescence for MNIQIGELAKRTACPVVTIRFYEQEGLLPPPGRSRGNFRLYGEEHLERLQFIRHCRSLDMPLSDVRTLLSYRKRPDQDCGEVNMLLDEHIRQVESRIGALLELKHHLVELREACSGARPAQSCGILQGLSDCVCDTRGTTAHPSD .
[A] 0.0847

[Q] Param item = MNIQIGELAKRTACPVVTIRFYEQEGLLPPPGRSRGNFRLYGEEHVERLQFIRHCRSLDMPLSDVRTLLSYRKRPDQDCGEVNMLLDEHIRQVESRIGALLELKHHLMELREACSGARPAQSCGILQGLSDCVCDTRGTTAHPSD ; retrieve measured sfGFP reporter fluorescence.
[A] 0.0682

[Q] I have this variant here, MNIQIGELAKRTACPVVTIRFYEQEGLLPPPGRSRGNFRLYGEEHVERLQFIRHCRSLDMPLSDVRTLLSYRKRPDQDCGEVNMLLDEHIRQVESRIGALLELLHHLVELREACSGARPAQSCGILQGLSDCVCDTRGTTAHPSD , and I need its recorded sfGFP reporter fluorescence.
[A] 0.135

[Q] Return reported sfGFP reporter fluorescence; argument: MNIQIGELAKRTACPVVTIRFYEQEGLLPPPGRSRGNFRLYGEEHVERLQFIRHCRSLDMPLSDVRTLLSYRKRPDQDCGEVNMLLDEHCRQVESRIGALLELKHHLVELREACSGARPAQSCGILQGLSDCVCDTRGTTAHPSD
[A] 0.0656

[Q] Quick one: sfGFP reporter fluorescence of MNIQIGELAKRTACPVVTIRFYEQEGLLPPPGRSRGNFRLYGEEHVERLQFIRHCRSLDMPLSDVRTLLSYRKRPDQDCGEVNMLLDEHIRQVESRIGALLELKHHLVELREACSGARPAQSCGILQGLSDAVCDTRGTTAHPSD ?
[A] 0.0832

[Q] Need sfGFP reporter fluorescence, item MNIQIGELAKRTACPVVTIRFYEQEGLLPPPGRSRGNFRLYGEEHVERLQFIRHCRSLDMPLSDVRTLLSYRKRPDQDCGEVNMLLDEHIRQVESRIGALLELKHHLVCLREACSGARPAQSCGILQGLSDCVCDTRGTTAHPSD
[A] 0.0867

[Q] What value of sfGFP reporter fluorescence has been reported for the following variant? MNIQIGELAKRTACPVVTIRFYEQEGLLPPPGRSRGNFRLYGEEHVERLQFIRHCRSLDMPLSDVRTLLSYRKRPDQDCGEVNMLLDEHIRQVESRIGALLELKHHLVELRPACSGARPAQSCGILQGLSDCVCDTRGTTAHPSD
[A] 0.057

[Q] Record request: sfGFP reporter fluorescence value, item MNIQIGELAKRTACPVVTIRFYEQEGLLPPPGRSRGNFRLYGEEHVERLQFIRHCRSLDMPLSDVRTLLSYRKRPDQDCGEVNMLLDEHIRQVESRIGALLELKHHLVELREACSGARPAQSCGILQGASDCVCDTRGTTAHPSD
[A] 0.0561

[Q] Need sfGFP reporter fluorescence of MNIQIGELAKRTACPVVTIRFYEQEGLLPPPGRSRGNFRLYGEEHVERLQFIRHCRSLDMPLSDVRTLLSYRKRPDQDCGEVNMLLDEHIRQVESRIGALLELKHHLVELREACSGARPAQSCGILQGLSDCVCDTRGTTAHRSD , thanks.
[A] 0.0806

[Q] So what does the record say about sfGFP reporter fluorescence for MNIQIGELAKRTACPVVTIRFYEQEGLLPPPGRSRGNFRLYGEEHVERLQFIRHCRSLDMPLSDVRTLLSYRKRPDQDCGEVFMLLDEHIRQVESRIGALLELKHHLVELREACSGARPAQSCGILQGLSDCVCDTRGTTAHPSD ?
[A] 0.0727

[Q] What sfGFP reporter fluorescence value was documented for this variant, MNIQIGELAKRTACPVVTIRRYEQEGLLPPPGRSRGNFRLYGEEHVERLQFIRHCRSLDMPLSDVRTLLSYRKRPDQDCGEVNMLLDEHIRQVESRIGALLELKHHLVELREACSGARPAQSCGILQGLSDCVCDTRGTTAHPSD ?
[A] 0.0621

[Q] If you can, please state the reported sfGFP reporter fluorescence value of MNIQIGELAKRTACPVVTIRFYEQEGLLPPPGRSRGNFRLYGEEHVERLQFIRHCRSLDMPLSDVRTLLSYRKRPDQDCGEVNMLLDEHIRQVESRIGALLELKHHLVELRYACSGARPAQSCGILQGLSDCVCDTRGTTAHPSD .
[A] 0.064

[Q] Endpoint output: sfGFP reporter fluorescence of MNIQIGELAKRTACVVVTIRFYEQEGLLPPPGRSRGNFRLYGEEHVERLQFIRHCRSLDMPLSDVRTLLSYRKRPDQDCGEVNMLLDEHIRQVESRIGALLELKHHLVELREACSGARPAQSCGILQGLSDCVCDTRGTTAHPSD . Value?
[A] 0.0738

[Q] I am curious: what sfGFP reporter fluorescence value has been reported for MNIQIGELAKRTACPVVTIRFYEQEGLLPPPGRSRGNFRLYGEEHVERLQFIRHCRSLDMPPSDVRTLLSYRKRPDQDCGEVNMLLDEHIRQVESRIGALLELKHHLVELREACSGARPAQSCGILQGLSDCVCDTRGTTAHPSD ?
[A] 0.0649

[Q] Fill blank: measured sfGFP reporter fluorescence of the variant MNIQIGELAKRTACPVVTIRFYEQEGLLPPPGRSRGNFRLYGEEHVERLQFIRHCRSLDMNLSDVRTLLSYRKRPDQDCGEVNMLLDEHIRQVESRIGALLELKHHCVELREACSGARPAQSCGILQILSDCVCDTRGTTAHPSD is ____.
[A] 2.91

[Q] Field request: sfGFP reporter fluorescence | item: MNIQIGELAKRTACPVVTIRQYEQEGLLPPPGRSRGNFRLYGEEHVERLQFIRHCRSLDMPLSDVRTLLSYRKRPDQDCGEVNMLLDEHIRQVESRIGALLELKHHLVELREACSGARPAQSCGILQGLSDCVCDTRGTTAHPSD
[A] 0.0583

[Q] Name the recorded sfGFP reporter fluorescence for MNIQIGELAKRTACPVVTIRFYEQEGLWPPPGRSRGNFRLYGEEHVERLQFIRHCRSLDMPLSDVRTLLSYRKRPDQDCGEVNMLLDEHIRQVESRIGALLELKHHLVELREACSGARPAQSCGILQGLSDCVCDTRGTTAHPSD .
[A] 0.0821

[Q] Dear colleague, I am looking for the recorded sfGFP reporter fluorescence of the following variant: MNIQIGELAKRTACPVVTIRFYEQEGLLPPPGRSRGNFRLYGEEHVERLQFIRHCRSLDMPLSDVRTLLSYRKRPDQDCGEVHMLLDEHIRQVESRIGALLELKHHLVELREACSGARPAQSCGILQGLSDCVCDTRGTTAHPSD
[A] 2.63

[Q] Can you look up the measured sfGFP reporter fluorescence of MNIQIGELAKRTACPVVTIRFYEQEGLLPPPGVSRGNFRLYGEEHVERLQFIRHCRSLDMPLSDVRTLLSYRKRPDQDCGEVNMLLDEHIRQVESRIGALLELKHHLVELREACSGARPAQSCGILQGLSDCVCDTRGTTAHPSD for me?
[A] 0.0594

[Q] For MNIQIGELAKRTACPVVTIRFYEQEGLLPPPGRSRGNFRLYGEEHKERLQFIRHCRSLDMPLSDVRTLLSYRKRPDQDCGEVNMLLDEHIRQVESRIGALLELKHHLVELREACSGARPAQSCGILQGLSDCVCDTRGTTAHPSD , what is its reported sfGFP reporter fluorescence?
[A] 0.0922

[Q] Return reported sfGFP reporter fluorescence; argument: MNIQIGELAKRTACPVVTIRFYEQEGLLPPPGRSRHNFRLYGEEHVERLQFIRHCRSLDMPLSDVRTLLSYRKRPDQDCGEVNMLLDEHIRQVESRIGALLELKHHLVELREACSGARPAQSCGILQGLSDCVCDTRGTTAHPSD
[A] 0.0793
